Cited source for all entries: PubChem BioAssay AID1159580

method.description: chemical genetic growth profiling, strain panel (AID 1159580);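 note: tested at 20 µM; growth read once vehicle control cultures reached saturation at 30 °C; 1 = growth at the plate median or of vehicle wells; lower values mean less growth of the strain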
measurement.setup: S. cerevisiae deletion strains, growth OD, locus YDR101C, strain arx1, active compounds read low
Out of some 5,500 compounds screened, about 2,000 (36%) were called active. About 18% were inconclusive and are not listed. Some of the results follow.
Consider the following compounds; for each one, report its normalized growth.
Give bare numbers.

NC1CC1c1ccccc1 (stereo unspecified)	0.976
NC(N)=NC(N)=Nc1ccccc1	1.02
CC(=O)OCC(=O)[C@@]1(O)CCC2C3CCC4=CC(=O)CC[C@]4(C)C3[C@@H](O)C[C@@]21C (stereo partly specified)	0.994
COc1cnc(NS(=O)(=O)c2ccc(N)cc2)nc1	0.983
C[C@]12CCC(=O)C=C1CCC1C2[C@@H](O)C[C@@]2(C)C1CC[C@]2(O)C(=O)COC(=O)CCC(=O)O (stereo partly specified)	1.01

Hello, I would appreciate it if you could give normalized growth for each entry below.
1. COc1ccc(C2C(=O)c3ccccc3C2=O)cc1
2. CN1C(=O)CCS(=O)(=O)C1c1ccc(Cl)cc1 (stereo unspecified)

**Result**
1.03
1.01

Hello, I would appreciate it if you could give normalized growth for each entry below.
1. CC1=CC2C(C(C)C)CCC(C)(O)C2CC1 (stereo unspecified)
2. C#C[C@]1(O)CCC2C3CCC4=Cc5oncc5C[C@]4(C)C3CC[C@@]21C (stereo partly specified)

**Result**
[0.969, 0.887]

Hello, I would appreciate it if you could give normalized growth for each entry below.
1. NC1C[C@H]1c1ccccc1 (stereo partly specified)
2. CCCc1nc2c(C)cc(-c3nc4ccccc4n3C)cc2n1Cc1ccc(-c2ccccc2C(=O)O)cc1

**Result**
1. 0.977
2. 0.989
